Consider the following compounds and their measured log10 of IC50 readings.
biological target: GSK3β (Homo sapiens, UniProt P49841); assay: GSK3β kinase assay (Caliper LabChip, fluoresceinated peptide substrate); assay type: biochemical; conditions: first value of the cell; 250 pM enzyme, 20 uM ATP, 20 hours at room temperature; read-out: GSK3β/α (nM): GSK3β IC50
Sequence (P49841 whole entry, species assumed): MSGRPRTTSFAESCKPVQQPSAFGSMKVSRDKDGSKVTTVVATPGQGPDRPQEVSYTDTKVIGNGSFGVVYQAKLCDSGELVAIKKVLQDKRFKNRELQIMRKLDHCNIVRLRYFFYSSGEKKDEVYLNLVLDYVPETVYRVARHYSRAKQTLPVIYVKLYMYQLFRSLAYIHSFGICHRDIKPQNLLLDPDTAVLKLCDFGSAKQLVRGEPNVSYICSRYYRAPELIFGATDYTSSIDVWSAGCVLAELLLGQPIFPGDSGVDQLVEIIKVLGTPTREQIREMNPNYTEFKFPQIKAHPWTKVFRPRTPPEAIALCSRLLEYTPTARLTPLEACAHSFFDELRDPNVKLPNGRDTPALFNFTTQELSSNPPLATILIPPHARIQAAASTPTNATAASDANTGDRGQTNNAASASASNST
measurement_kind: log10 of IC50 (log10 of the value in nM)

>  <compound>
CC(C)C(O)c1cc(Cl)ncc1NC(=O)c1ccnc(Nc2ccc(C(F)(F)F)cn2)c1 (stereo not shown)

>  <numeric_readout>
0.83

$$$$
>  <compound>
Cc1cc(N2CCC(F)(F)CC2)c(NC(=O)c2ccnc(Nc3ccc(C(F)(F)F)cn3)c2)cn1

>  <numeric_readout>
0.54

$$$$
>  <compound>
O=C(Nc1cnccc1-c1ccc(F)cc1F)c1ccnc(Nc2ccc(C(F)(F)F)cn2)c1

>  <numeric_readout>
0.45

$$$$
>  <compound>
O=C(Nc1cnccc1S(=O)(=O)CC(F)(F)F)c1ccnc(Nc2ccc(C(F)(F)F)cn2)c1

>  <numeric_readout>
2.08

$$$$
>  <compound>
CCOc1ccncc1NC(=O)c1ccnc(Nc2ccccn2)c1

>  <numeric_readout>
0.95

$$$$
>  <compound>
CC(C)(C)COc1cc(F)ncc1NC(=O)c1ccnc(Nc2ccc(C(F)(F)F)cn2)c1

>  <numeric_readout>
0.71

$$$$
>  <compound>
O=C(Nc1cnccc1-c1ccccc1)c1ccnc(Nc2cc3ccccc3cn2)c1

>  <numeric_readout>
-0.01

$$$$
>  <compound>
O=C(Nc1cnccc1-c1ccccc1)c1ccnc(Nc2cccc(C(F)(F)F)n2)c1

>  <numeric_readout>
0.83

$$$$
>  <compound>
Cn1ncc(NC(=O)c2ccnc(Nc3ccc(C(F)(F)F)cn3)c2)c1C1(C)OCCO1

>  <numeric_readout>
-1.05

$$$$
>  <compound>
CC(C)(C)C(=O)Nc1cccc(Nc2cc(C(=O)Nc3cncc(-c4ccccc4F)c3)ccn2)n1

>  <numeric_readout>
0.96

$$$$
>  <compound>
N#Cc1cccc(Nc2cc(C(=O)Nc3cncc(-c4ccccc4F)c3)ccn2)n1

>  <numeric_readout>
0.20

$$$$
>  <compound>
O=C(Nc1cnccc1-c1ccccc1)c1ccnc(Nc2ccccn2)c1

>  <numeric_readout>
0.53

$$$$
>  <compound>
CC(C)(C)COc1cc(F)ncc1NC(=O)c1ccnc(Nc2ccc(Cl)cn2)c1

>  <numeric_readout>
0.70

$$$$
>  <compound>
O=C(Nc1cnc(F)cc1OCC(F)F)c1ccnc(Nc2ccc(F)cn2)c1

>  <numeric_readout>
0.64

$$$$
>  <compound>
O=C(Nc1cnccc1-c1ccccc1F)c1ccnc(Nc2ccc(C(F)(F)F)cn2)c1

>  <numeric_readout>
-0.19

$$$$
>  <compound>
O=C(Nc1cnc(F)cc1OCC(F)(F)F)c1ccnc(Nc2ccc(Cl)cn2)c1

>  <numeric_readout>
0.58

$$$$
>  <compound>
CS(=O)(=O)c1ccncc1NC(=O)c1ccnc(Nc2ccc(C(F)(F)F)cn2)c1

>  <numeric_readout>
0.08

$$$$
>  <compound>
N#Cc1ccc(Nc2cc(C(=O)Nc3cnccc3-c3ccc(F)cc3)ccn2)nc1

>  <numeric_readout>
0.38

$$$$
>  <compound>
O=C(Nc1cnc(Cl)cc1S(=O)(=O)C1CC1)c1ccnc(Nc2ccc(C(F)(F)F)cn2)c1

>  <numeric_readout>
0.70

$$$$
>  <compound>
CCCC1(c2cc(Cl)ncc2NC(=O)c2ccnc(Nc3ccc(C(F)(F)F)cn3)c2)OCCO1

>  <numeric_readout>
-0.16

$$$$
>  <compound>
NS(=O)(=O)c1ccc(Nc2cc(C(=O)Nc3cncc(-c4ccccc4F)c3)ccn2)nc1

>  <numeric_readout>
0.48

$$$$
>  <compound>
O=C(Nc1cnc(F)cc1OCC(F)F)c1ccnc(Nc2ccc(C(F)(F)F)cn2)c1

>  <numeric_readout>
0.79

$$$$
>  <compound>
C[C@@H]1COCCN1c1ccncc1NC(=O)c1ccnc(Nc2ccc(C(F)(F)F)cn2)c1

>  <numeric_readout>
-0.15

$$$$
>  <compound>
CC(C)Oc1ccncc1NC(=O)c1ccnc(Nc2ccc(C(F)(F)F)cn2)c1

>  <numeric_readout>
0.20

$$$$
>  <compound>
Cc1nc(Nc2cc(C(=O)Nc3cncc(-c4ccccc4F)c3)ccn2)ccc1C#N

>  <numeric_readout>
0.56

$$$$
